# system.under.test: GSK3β (Homo sapiens, UniProt P49841+Q96SW2)
# Construct: genetically engineered using CRISPR/Cas9 technology to endogenously tag GSK3p protein with HiBiT tag at the C-terminus; host or cells: HEK293 cells, CRISPR/Cas9 knock-in of HiBiT at the endogenous GSK3B locus
# Sequence (P49841 whole entry): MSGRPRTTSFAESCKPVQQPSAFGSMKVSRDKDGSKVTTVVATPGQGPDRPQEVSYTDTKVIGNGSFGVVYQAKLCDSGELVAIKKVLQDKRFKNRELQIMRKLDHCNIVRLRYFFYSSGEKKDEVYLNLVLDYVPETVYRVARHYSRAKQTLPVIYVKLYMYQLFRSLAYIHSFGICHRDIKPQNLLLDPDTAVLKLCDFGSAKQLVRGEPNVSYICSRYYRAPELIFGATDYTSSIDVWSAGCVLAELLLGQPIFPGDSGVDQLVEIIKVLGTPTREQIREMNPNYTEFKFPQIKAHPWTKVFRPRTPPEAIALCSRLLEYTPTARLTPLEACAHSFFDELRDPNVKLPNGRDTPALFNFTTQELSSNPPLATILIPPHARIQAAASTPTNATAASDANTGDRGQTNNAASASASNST
# Sequence (Q96SW2 whole entry): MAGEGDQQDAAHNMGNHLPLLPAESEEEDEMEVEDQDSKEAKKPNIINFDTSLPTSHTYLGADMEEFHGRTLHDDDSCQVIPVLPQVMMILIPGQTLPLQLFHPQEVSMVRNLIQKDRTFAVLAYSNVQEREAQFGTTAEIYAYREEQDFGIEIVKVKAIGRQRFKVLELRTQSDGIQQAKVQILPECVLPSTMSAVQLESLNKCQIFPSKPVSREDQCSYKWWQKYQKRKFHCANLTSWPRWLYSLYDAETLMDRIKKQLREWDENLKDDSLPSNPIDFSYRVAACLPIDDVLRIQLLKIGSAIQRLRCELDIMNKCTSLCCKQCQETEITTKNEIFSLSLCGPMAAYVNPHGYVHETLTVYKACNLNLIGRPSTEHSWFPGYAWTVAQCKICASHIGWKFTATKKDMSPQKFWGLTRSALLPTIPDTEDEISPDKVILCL
# Sequence (Q16531 whole entry partner): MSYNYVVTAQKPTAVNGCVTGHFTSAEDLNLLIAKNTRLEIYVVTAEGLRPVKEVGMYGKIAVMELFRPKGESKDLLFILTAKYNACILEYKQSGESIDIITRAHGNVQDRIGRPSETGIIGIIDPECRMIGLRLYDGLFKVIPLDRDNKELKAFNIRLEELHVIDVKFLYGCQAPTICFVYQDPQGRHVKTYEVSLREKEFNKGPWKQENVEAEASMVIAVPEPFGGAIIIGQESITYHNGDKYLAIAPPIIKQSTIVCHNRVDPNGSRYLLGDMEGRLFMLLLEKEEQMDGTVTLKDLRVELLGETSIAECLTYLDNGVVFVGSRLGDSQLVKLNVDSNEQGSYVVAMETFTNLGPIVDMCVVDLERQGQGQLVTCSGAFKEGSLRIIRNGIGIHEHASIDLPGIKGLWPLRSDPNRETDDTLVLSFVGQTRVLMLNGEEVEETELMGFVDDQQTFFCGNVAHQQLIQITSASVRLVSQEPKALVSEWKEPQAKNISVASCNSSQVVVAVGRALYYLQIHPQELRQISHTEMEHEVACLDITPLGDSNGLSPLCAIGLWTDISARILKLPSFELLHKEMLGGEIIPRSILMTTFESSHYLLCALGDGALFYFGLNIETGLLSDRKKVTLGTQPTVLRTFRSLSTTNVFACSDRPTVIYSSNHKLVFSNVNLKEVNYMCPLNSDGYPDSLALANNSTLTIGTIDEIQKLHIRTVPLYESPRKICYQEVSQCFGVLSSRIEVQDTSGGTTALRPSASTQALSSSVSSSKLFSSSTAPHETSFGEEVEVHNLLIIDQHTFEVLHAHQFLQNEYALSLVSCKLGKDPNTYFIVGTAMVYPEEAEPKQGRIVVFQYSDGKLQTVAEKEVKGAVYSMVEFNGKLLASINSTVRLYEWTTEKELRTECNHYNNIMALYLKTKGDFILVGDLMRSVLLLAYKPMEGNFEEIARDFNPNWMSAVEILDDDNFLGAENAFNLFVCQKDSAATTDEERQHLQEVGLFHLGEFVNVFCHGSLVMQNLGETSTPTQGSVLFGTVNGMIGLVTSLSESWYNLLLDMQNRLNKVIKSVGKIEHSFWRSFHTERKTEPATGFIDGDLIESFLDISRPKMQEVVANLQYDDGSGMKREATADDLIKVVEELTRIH
# assay.notes: High throughput screening for GSK3β-HiBiT targeted degradation (Nano-Glo HiBiT Lytic luminescence)
# Assay type: cell-based
# reported.conditions: HEK293 cells with endogenously HiBiT-tagged GSK3β, 24 h incubation, 0.01-30 μM; products of one-pot plate array (FIG. 1, Method A); read-out: DC50 (half-maximal degradation concentration)
Please provide measured DC50 for the entries that follow.

compound: COc1ccc(-c2ocnc2C(=O)NCCCn2cc(CCCCCN3CCN(Cc4cccc(N5CCC(=O)NC5=O)c4)CC3)nn2)cc1Cl [AHD2B-1-A7]
DC50: > 10 µM
//
compound: COc1ccc(-c2ocnc2C(=O)NCCCn2cc(CCCCCN3CCCN(Cc4cccc(N5CCC(=O)NC5=O)c4)CC3)nn2)cc1Cl [AHD2B-1-A9]
DC50: > 10 µM

Now for the compound whose DC50 we want.
// query Give DC50 (GSK3β (Homo sapiens, UniProt P49841+Q96SW2)) of the following compound: COc1ccc(-c2ocnc2C(=O)NCCCn2cc(CCCCN3CCN(Cc4ccc5c(N6CCC(=O)NC6=O)nn(C)c5c4)CC3)nn2)cc1Cl [AHD2B-1-D1]
// result 2.1 µM

----------
Please provide measured DC50 for the entries that follow.
# system.under.test: GSK3β (Homo sapiens, UniProt P49841+Q96SW2)
# Construct: genetically engineered using CRISPR/Cas9 technology to endogenously tag GSK3p protein with HiBiT tag at the C-terminus; host or cells: HEK293 cells, CRISPR/Cas9 knock-in of HiBiT at the endogenous GSK3B locus
# assay.notes: High throughput screening for GSK3β-HiBiT targeted degradation (Nano-Glo HiBiT Lytic luminescence)
# Assay type: cell-based
# reported.conditions: HEK293 cells with endogenously HiBiT-tagged GSK3β, 24 h incubation, 0.01-30 μM; products of one-pot plate array (FIG. 1, Method A); read-out: DC50 (half-maximal degradation concentration)

Study these solved cases before continuing.
compound: COc1ccc(-c2ocnc2C(=O)NCCCn2cc(CCCCCN3CCN(Cc4ccc(C(=O)NC5CCC(=O)NC5=O)nc4)CC3)nn2)cc1Cl (stereo not drawn) [AHD2B-1-F7]
result: > 10 µM
--
compound: COc1ccc(-c2ocnc2C(=O)NCCCn2cc(COc3ccc(CN4CCN(CC(=O)N[C@H](C(=O)N5C[C@H](O)C[C@H]5C(=O)NCc5ccc(-c6scnc6C)cc5)C(C)(C)C)CC4)cc3)nn2)cc1Cl [AHD2B-1-B3]
result: > 10 µM

Now for the compound whose DC50 we want.
// query Using the record for COc1ccc(-c2ocnc2C(=O)NCCCn2cc(COc3ccc(CN4CCN(Cc5cccc(N6CCC(=O)NC6=O)c5)CC4)cc3)nn2)cc1Cl [AHD2B-1-A3] , report its DC50.
// result > 10 µM

----------
# system.under.test: GSK3β (Homo sapiens, UniProt P49841+Q96SW2)
# Construct: genetically engineered using CRISPR/Cas9 technology to endogenously tag GSK3p protein with HiBiT tag at the C-terminus; host or cells: HEK293 cells, CRISPR/Cas9 knock-in of HiBiT at the endogenous GSK3B locus
# assay.notes: High throughput screening for GSK3β-HiBiT targeted degradation (Nano-Glo HiBiT Lytic luminescence)
# Format: cell-based
# reported.conditions: HEK293 cells with endogenously HiBiT-tagged GSK3β, 24 h incubation, 0.01-30 μM; products of one-pot plate array (FIG. 1, Method A); read-out: DC50 (half-maximal degradation concentration)
metric.name: DC50

Study these solved cases before continuing.
compound: COc1ccc(-c2ocnc2C(=O)NCCCn2cc(COC3CCN(CC(=O)N[C@H](C(=O)N4C[C@H](O)C[C@H]4C(=O)NCc4ccc(-c5scnc5C)cc4)C(C)(C)C)CC3)nn2)cc1Cl
DC50: > 10 µM

compound: COc1ccc(-c2ocnc2C(=O)NCCCn2cc(-c3ccc(CN4CCN(CC(=O)N[C@H](C(=O)N5C[C@H](O)C[C@H]5C(=O)NCc5ccc(-c6scnc6C)cc5)C(C)(C)C)CC4)cn3)nn2)cc1Cl
DC50: > 10 µM

compound: COc1ccc(-c2ocnc2C(=O)NCCCn2cc(COC3CCN(Cc4ccc5c(N6CCC(=O)NC6=O)nn(C)c5c4)CC3)nn2)cc1Cl
DC50: 0.55 µM

compound: COc1ccc(-c2ocnc2C(=O)NCCCn2cc(COc3ccc(CN4CC5(C4)CN(Cc4cccc(N6CCC(=O)NC6=O)c4)C5)cc3)nn2)cc1Cl
DC50: > 10 µM

compound: COc1ccc(-c2ocnc2C(=O)NCCCn2cc(-c3cccc(CN4CCN(Cc5ccc(C(=O)NC6CCC(=O)NC6=O)nc5)CC4)n3)nn2)cc1Cl (stereo not drawn)
DC50: > 10 µM

Quick batch: DC50 for everything below.
1. COc1ccc(-c2ocnc2C(=O)NCCCn2cc(COc3ccc(CN4CCC5(C4)CN(Cc4ccc(N6CCC(=O)NC6=O)cc4)C5)cc3)nn2)cc1Cl
2. COc1ccc(-c2ocnc2C(=O)NCCCn2cc(CCCCCN3CCCN(Cc4ccc(C(=O)NC5CCC(=O)NC5=O)c(F)c4)CC3)nn2)cc1Cl (stereo not drawn)
3. COc1ccc(-c2ocnc2C(=O)NCCCn2cc(COc3ccc(CN4CC5(C4)CN(Cc4ccc(C(=O)NC6CCC(=O)NC6=O)nc4)C5)cc3)nn2)cc1Cl (stereo not drawn)
4. COc1ccc(-c2ocnc2C(=O)NCCCn2cc(CCCCCN3CCCN(Cc4ccc(N5CCC(=O)NC5=O)cc4)CC3)nn2)cc1Cl
5. COc1ccc(-c2ocnc2C(=O)NCCCn2cc(CCCCN3CCN(Cc4ccc(C(=O)NC5CCC(=O)NC5=O)nc4)CC3)nn2)cc1Cl (stereo not drawn)
6. COc1ccc(-c2ocnc2C(=O)NCCCn2cc(COC3CCN(Cc4ccc(C(=O)NC5CCC(=O)NC5=O)nc4)CC3)nn2)cc1Cl (stereo not drawn)
7. COc1ccc(-c2ocnc2C(=O)NCCCn2cc(COCCOCCN3CCN(Cc4cccc(N5CCC(=O)NC5=O)c4)CC3)nn2)cc1Cl

// result
["> 10 µM", "7.1 µM", "> 10 µM", "> 10 µM", "> 10 µM", "> 10 µM", "> 10 µM"]
